Entries and their measured ΔTm follow.
Target: Aurora kinase A (Homo sapiens)
Sequence (whole entry): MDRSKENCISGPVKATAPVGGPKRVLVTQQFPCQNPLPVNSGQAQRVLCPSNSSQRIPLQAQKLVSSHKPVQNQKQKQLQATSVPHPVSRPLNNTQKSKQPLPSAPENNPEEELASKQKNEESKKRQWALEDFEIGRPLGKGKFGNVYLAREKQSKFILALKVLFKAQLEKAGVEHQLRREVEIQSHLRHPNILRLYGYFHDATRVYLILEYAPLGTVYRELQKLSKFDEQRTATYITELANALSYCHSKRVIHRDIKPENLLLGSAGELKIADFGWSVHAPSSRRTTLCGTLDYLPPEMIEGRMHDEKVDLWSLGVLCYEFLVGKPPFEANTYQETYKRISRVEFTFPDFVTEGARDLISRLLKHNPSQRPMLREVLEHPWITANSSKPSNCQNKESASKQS
Conditions: Compound concentration 20.0 uM
Description: Thermal Shift Assay. Domain: start/stop: E122-S403
Residues, ends and D or L forms follow the SMILES beside them. *: point of attachment. Boc = CC(C)(C)OC(=O)*

- compound: "Cc1cc(N2C[C@@H](C)N[C@@H](C)C2)ncc1-c1ccc(-c2nc3c(ccn3C)c(=O)[nH]2)cc1"
  ΔTm [°C]: -1.4
- compound: "CN1CCc2c(n(Cc3ccc(C(=O)NO)cc3)c3ccccc23)C1"
  ΔTm [°C]: -0.37
- compound: "CCOC(=O)NCCCC(=O)NCCc1ccccc1"
  ΔTm [°C]: -1.13
- compound: "CC(C)(C)OC(=O)N1CCC[C@H]1C(=O)N1CCC[C@H]1C=O (Boc-Pro-Pro-aldehyde)"
  ΔTm [°C]: -2.5

----------
Entries and their measured ΔTm follow.
Molecular target: Tyrosine-protein kinase ABL1 (Homo sapiens)
Conditions: Compound concentration 20.0 uM
Description: Thermal Shift Assay. Domain: start/stop: S229-K512
property-name: ΔTm (°C)

- structure-smiles: "CC(C)[C@@H]1NC(=O)[C@H](Cc2ccc(O)cc2)NC(=O)[C@@H](CC(=O)O)NC(=O)S[C@@H](C(=O)O)NC(=O)[C@H]([C@H](C)O)NC(=O)[C@H](Cc2ccc(O)cc2)NC(=O)[C@H](Cc2c[nH]c3ccccc23)NC(=O)[C@H](CCCNC(=N)N)NC(=O)[C@H](Cc2c[nH]c3ccccc23)NC(=O)[C@H](C)NC(=O)[C@H](CO)NC(=O)[C@H](CCCNC(=N)N)NC(=O)[C@H]([C@H](C)O)NC(=O)[C@H](CC(N)=O)NC(=O)[C@H](Cc2ccc(O)cc2)NC1=O"
  units-label: "°C"
  measured: 0.39
- structure-smiles: "CCn1c(=S)[nH]c2cc3c(NCc4ccccc4N4CCC(CO)CC4)ncnc3cc21"
  units-label: "°C"
  measured: 0.75
- structure-smiles: "O=S(=O)(O)c1ccc2cc(/N=N/c3cc(S(=O)(=O)O)c4cccnc4c3O)ccc2c1"
  units-label: "°C"
  measured: 0.53
- structure-smiles: "CC(C)(Sc1ccncc1-c1ccc(C#N)c2ccccc12)C(=O)O"
  units-label: "°C"
  measured: -0.01
- structure-smiles: "CC(=O)N[C@@H](CC(=O)O)C(=O)N[C@@H](CCC(=O)O)C(=O)N[C@H](C(=O)N[C@@H](CC(=O)O)C(=O)CCl)C(C)C"
  units-label: "°C"
  measured: 0.1
- structure-smiles: "CCC[C@@H]1CNCc2c1[nH]c(=O)c(C#N)c2N1CCC2(CC1)CC2"
  units-label: "°C"
  measured: 0.32
- structure-smiles: "Cc1cc(Cn2c(=O)n(Cc3cnc(C)s3)c(=O)c3cc(S(=O)(=O)NC4(C)CC4)ccc32)n(C)n1"
  units-label: "°C"
  measured: 0.2
- structure-smiles: "CNc1cc(-c2cccc(Cl)c2Cl)nc(N)n1"
  units-label: "°C"
  measured: 0.38
- structure-smiles: "Cc1c(NC(=O)c2cc(C(N)=O)nc3cc(F)ccc23)c(C(F)(F)F)nn1Cc1ccc(C#N)cc1"
  units-label: "°C"
  measured: 0.61
- structure-smiles: "COc1cc(C(=O)NCC2(N(C)C)CCCC2)cc(OC)c1OCc1ccccc1"
  units-label: "°C"
  measured: 0.81
- structure-smiles: "Cc1ncsc1-c1ccc(CNC(=O)[C@@H]2C[C@@H](O)CN2C(=O)[C@@H](NC(=O)COCCOCCOCCNC(=O)C[C@@H]2N=C(c3ccc(Cl)cc3)c3c(sc(C)c3C)-n3c(C)nnc32)C(C)(C)C)cc1"
  units-label: "°C"
  measured: 0.3
- structure-smiles: "CCn1nc(C2CC2)cc1Nc1nc(C(=O)NC)nc2[nH]c3cc(-c4c(C)noc4C)c(OC)cc3c12"
  units-label: "°C"
  measured: 0.56
- structure-smiles: "O=C(O)CCNc1cc(N2CCc3ccccc3CC2)nc(-c2cccnc2)n1"
  units-label: "°C"
  measured: 0.76
- structure-smiles: "O=C(Nc1ccc2[nH]nc(-c3ccncc3)c2c1)[C@@H]1CCN(CC(=O)N2CCN(c3ccc(-c4ncccn4)cc3)CC2)C1"
  units-label: "°C"
  measured: 1.95
- structure-smiles: "CC(C)c1c(-c2ccccc2)[nH]c2c(C#N)cnn2c1=O"
  units-label: "°C"
  measured: 0.72
- structure-smiles: "C/C=C1\\NC(=O)[C@H]2CSSCC/C=C/[C@H](CC(=O)N[C@H](C(C)C)C(=O)N2)OC(=O)[C@H](C(C)C)NC1=O"
  units-label: "°C"
  measured: -1.22
- structure-smiles: "N#C[C@@H]1CCCN1C(=O)[C@@H]1CCCN1C(=O)CCCc1ccccc1"
  units-label: "°C"
  measured: 0.07
- structure-smiles: "O=C(c1cc(O)c(O)c([N+](=O)[O-])c1)c1ccccc1F"
  units-label: "°C"
  measured: 0.42
- structure-smiles: "Cn1c(OC[C@H]2CC[C@H](C(F)(F)F)CC2)nn2c(C3CCOCC3)ncc2c1=O"
  units-label: "°C"
  measured: 0.42
- structure-smiles: "CCCCCCCC(=O)N[C@H](CN1CCCC1)[C@H](O)c1ccc2c(c1)OCCO2"
  units-label: "°C"
  measured: 0.07
- structure-smiles: "CN(C)CCCN(CC[C@H](N)C(=O)O)C[C@H]1O[C@@H](n2cnc3c(N)ncnc32)[C@H](O)[C@@H]1O"
  units-label: "°C"
  measured: 0.32
- structure-smiles: "N#Cc1c(N)[nH]c2cc(/C=C/c3cccc(F)c3)ccc12"
  units-label: "°C"
  measured: 1.1
- structure-smiles: "Oc1ccc(-c2c(-c3ccccc3)nn3c(C(F)(F)F)cc(C(F)(F)F)nc23)cc1"
  units-label: "°C"
  measured: 2.06
- structure-smiles: "O=C1c2ccccc2C(=O)c2oc(-c3ccc(F)cc3)nc21"
  units-label: "°C"
  measured: 0.01

----------
Entries and their measured ΔTm follow.
Biological target: Glycogen synthase kinase-3 beta (Homo sapiens)
Conditions: Compound concentration 20.0 uM
Description: Thermal Shift Assay. Domain: start/stop: M26-R383

- compound: "CCCNC(=O)[C@H]1O[C@@H]1C(=O)N[C@H](C(=O)N1CCC[C@H]1C(=O)O)[C@@H](C)CC"
  measurement-target: "Glycogen synthase kinase-3 beta (Homo sapiens)"
  units-label: "°C"
  ΔTm: 0.22
- compound: "CCCC1O[C@@H]2C[C@H]3[C@@H]4CCC5=CC(=O)C=C[C@]5(C)[C@H]4[C@@H](O)C[C@]3(C)[C@]2(C(=O)CO)O1 (stereo not given in full)"
  measurement-target: "Glycogen synthase kinase-3 beta (Homo sapiens)"
  units-label: "°C"
  ΔTm: -0.4
- compound: "CC1(NC(=O)COc2cccc(-c3nc4c(c(Nc5ccc(-c6cn[nH]c6)cc5)n3)CN(C3CCC3)CC4)c2)CC1"
  measurement-target: "Glycogen synthase kinase-3 beta (Homo sapiens)"
  units-label: "°C"
  ΔTm: -0.18
- compound: "CS(=O)(=O)c1ncn2c(NCc3c(F)ccc4c3CCO4)ncc(-c3ccc(C4CC4)nc3)c12"
  measurement-target: "Glycogen synthase kinase-3 beta (Homo sapiens)"
  units-label: "°C"
  ΔTm: -0.29
- compound: "CS(=O)(=O)N1CCN(C(=O)c2cnc3ccc(F)cc3c2-c2ccc(C3(C#N)CC3)cc2)CC1"
  measurement-target: "Glycogen synthase kinase-3 beta (Homo sapiens)"
  units-label: "°C"
  ΔTm: 3.18
- compound: "COc1cc2/c(=N/c3ccc(Br)cc3F)nc[nH]c2cc1OCC1CCN(C)CC1"
  measurement-target: "Glycogen synthase kinase-3 beta (Homo sapiens)"
  units-label: "°C"
  ΔTm: -0.61
- compound: "O=C(NCc1ncccc1F)c1coc(CCNCCc2nc3ccccc3[nH]2)n1"
  measurement-target: "Glycogen synthase kinase-3 beta (Homo sapiens)"
  units-label: "°C"
  ΔTm: -0.87
- compound: "CS(=O)(=O)n1cc2c(n1)CN([C@H]1CO[C@H](c3cc(F)ccc3F)[C@@H](N)C1)C2"
  measurement-target: "Glycogen synthase kinase-3 beta (Homo sapiens)"
  units-label: "°C"
  ΔTm: -0.84
- compound: "Cc1cc(C)c(-c2[nH]nc(C)c2C)cc1C(=O)N1CC(c2ccc(C#N)cc2)C1"
  measurement-target: "Glycogen synthase kinase-3 beta (Homo sapiens)"
  units-label: "°C"
  ΔTm: -0.42
- compound: "CCNC(=O)c1cc2c(-c3cc(C(C)(C)O)ccc3Oc3c(C)cc(F)cc3C)cn(C)c(=O)c2[nH]1"
  measurement-target: "Glycogen synthase kinase-3 beta (Homo sapiens)"
  units-label: "°C"
  ΔTm: -0.33
